The measured values listed here are drawn from ChEMBL document CHEMBL4340545.

Test: Tmax in Sprague-Dawley rat at 30 mg/5 ml/kg, po dissolved in 40% HP-beta-CD
Type: ADME, organism-based
Conditions: in vivo, 30 mg/kg
property label: Tmax (h)
Please reply with the bare figure in h and do not write the unit itself.

                               input_smiles  data_value
0  COc1ccc(Oc2ccc(N3CC(=O)N([C@@H](CC4CCN(C(=O)C(C)C)CC4)c4nc5ccc(C)cc5n4C)C3=O)cc2)cc1           2

Continue with the compound presented below.
// query Tmax value for entry `Cc1ccc2nc([C@H](CC3CCN(C(=O)C(C)C)CC3)N3C(=O)CN(c4ccc(Oc5ccccc5)cc4)C3=O)n(C)c2c1`
0.5

---

Experiment: Volume of distribution at steady state in Sprague-Dawley rat at 1 mg/ml/kg, iv dissolved in 10% HP-beta-CD
Type: ADME, organism-based
Conditions: in vivo, 1 mg/kg, read-out: Vdss
property label: Vd (L/kg)
Please reply with the bare figure in L/kg and do not write the unit itself.

>>> print(df.to_string())
                               input_smiles  readout_units  data_value
0  COc1ccc(Oc2ccc(N3CC(=O)N([C@@H](CC4CCN(C(=O)C(C)C)CC4)c4nc5ccc(C)cc5n4C)C3=O)cc2)cc1           L/kg        3.86

// query Vd value for entry `Cc1ccc2nc([C@H](CC3CCN(C(=O)C(C)C)CC3)N3C(=O)CN(c4ccc(Oc5ccccc5)cc4)C3=O)n(C)c2c1`
8.9

---

Assay: Oral bioavailability in Sprague-Dawley rat at 30 mg/5 ml/kg dissolved in 40% HP-beta-CD
Assay type: ADME, organism-based
Conditions: in vivo, 30 mg/kg
property label: bioavailability
Please give the number followed by its unit.

// query bioavailability value for entry `Cc1ccc2nc([C@H](CC3CCN(C(=O)C(C)C)CC3)N3C(=O)CN(c4ccc(Oc5ccccc5)cc4)C3=O)n(C)c2c1`
2.76%

---

Biological target: Bile acid receptor (Homo sapiens)
Sequence (Q96RI1 whole entry): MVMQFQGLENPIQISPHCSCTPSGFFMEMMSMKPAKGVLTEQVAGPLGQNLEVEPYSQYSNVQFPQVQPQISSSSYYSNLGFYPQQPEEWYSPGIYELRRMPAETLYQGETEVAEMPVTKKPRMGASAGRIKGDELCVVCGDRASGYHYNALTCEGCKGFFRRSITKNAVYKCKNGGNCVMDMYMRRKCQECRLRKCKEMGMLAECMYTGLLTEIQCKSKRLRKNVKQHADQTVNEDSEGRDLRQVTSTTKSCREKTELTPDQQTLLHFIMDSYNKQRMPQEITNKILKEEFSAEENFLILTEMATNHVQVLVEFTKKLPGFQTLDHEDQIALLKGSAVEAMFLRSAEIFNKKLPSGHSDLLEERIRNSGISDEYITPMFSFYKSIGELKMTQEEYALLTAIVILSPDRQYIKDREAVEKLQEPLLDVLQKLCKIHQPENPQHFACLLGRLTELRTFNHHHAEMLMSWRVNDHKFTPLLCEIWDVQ
Test: Antagonist activity at human FXR expressed in Huh7 cells assessed as inhibition of CDCA-induced FXR response element driven luciferase activity after 24 hrs
Assay type: cell-based
Each entry below carries its reported pIC50.
Scale: pIC50 equals -log10([C]), with [C] in mol/L.

The examples below pair each entry with its known result.
In [3]: df
Out[3]:
                               input_smiles  data_value
0  Cc1ccc2nc([C@H](Cc3ccc(C#N)cc3)N3C(=O)CN(c4ccc(Oc5ccccc5)cc4)C3=O)n(C)c2c1        6.11
1  Cc1ccc2nc([C@H](CC3CCN(C(=O)C(C)C)CC3)N3C(=O)CN(c4ccc(OC5CCCCC5)cc4)C3=O)n(C)c2c1        7.28
2  Cc1ccc2nc([C@H](CC3CCN(S(=O)(=O)C(C)C)CC3)N3C(=O)CN(c4ccc(Oc5ccccc5)cc4)C3=O)n(C)c2c1        7.22
3  Cc1ccc2nc([C@H](CC3CCN(C(=O)C(C)C)CC3)N3C(=O)CN(c4ccc(Oc5ccc(F)cc5)cc4)C3=O)n(C)c2c1       10.30
4  Cc1ccc2nc([C@H](CC3CCN(C(=O)C(C)C)CC3)N3CC(=O)N(c4ccc(Oc5ccccc5)cc4)CC3=O)n(C)c2c1        6.07
5  Cc1ccc2nc([C@H](CC3CCN(C(=O)C(C)C)CC3)N3C(=O)CN(c4ccc(Oc5ccccc5)cc4)C3=O)n(CC(C)C)c2c1        8.62

Give pIC50 (Bile acid receptor (Homo sapiens)) of the following molecule: `Cc1ccc2nc([C@H](CC3CCN(C(=O)NC(C)C)CC3)N3C(=O)CN(c4ccc(Oc5ccccc5)cc4)C3=O)n(C)c2c1`
7.74
